Measured CC50, listed per entry for reference.
Test system: Vero cells
experiment: in vitro
Assay type: cell-based, African green monkey
run-parameters: African green monkey

molecule	CC50 (µM)
CC(ON1C(C)(C)CCCC1(C)C)c1ccc(NC(=O)[C@@H](Cc2ccccc2)NC(=O)[C@H](NC(=O)[C@H](N)Cc2ccccc2)C(C)C)cc1 (some centres unmarked)	2.6
CC(ON(C(C)(C)C)C(C)(C)C)c1ccc(NC(=O)[C@@H](Cc2ccccc2)NC(=O)[C@H](NC(=O)[C@H](N)Cc2ccccc2)C(C)C)cc1 (some centres unmarked)	6.6

* * *

experiment: in vitro
Type: cell-based, African green monkey
run-parameters: African green monkey, Cytotoxicity CC50
Protocol: IC50 values corresponding to 50% inhibition of P. falciparum growth were determined by SYBR Green assay, and the assessment of cytotoxicity was performed on Vero cells (cell line from the kidney of a normal adult African green monkey), as previously published. The selectivity index corresponded to the cytotoxicity/activity ratio.
Where a SMILES comes first, the peptide text is derived from it. [ ]: non-standard residue; d: D form. The star is where a group is joined. Boc = CC(C)(C)OC(=O)*; OBn = c1ccc(CO*)cc1
Measured CC50, listed per entry for reference.
assay-metric: CC50

molecule	meas-value
CC(C)[C@@H](NC(=O)[C@@H](Cc1ccccc1)NC(=O)OC(C)(C)C)C(=O)N[C@H](Cc1ccccc1)C(=O)OCc1ccccc1 [P6D, Boc-D-Phe-D-Val-D-Phe–OBn] (Boc-[dF]-[dV]-[dF]-OBn)	3.2 µM
CC(C)[C@H](NC(=O)[C@@H](N)Cc1ccccc1)C(=O)N[C@@H](Cc1ccccc1)C(=O)OCc1ccccc1 [P8L] (H-Phe-Val-Phe-OBn)	> 50 µM
CC(ON(C(C)(C)C)C(C)(C)C)c1ccc(NC(=O)[C@H](Cc2ccccc2)NC(=O)[C@@H](NC(=O)[C@H](Cc2ccccc2)NC(=O)OC(C)(C)C)C(C)C)cc1 (some centres unmarked) [A8L]	> 50 µM
C[C@@H]1CC[C@H]2[C@@H](C)C(=O)O[C@@H]3O[C@@]4(C)CC[C@@H]1[C@]32OO4 [ART, Artemisinin, reference compound]	> 50 µM
CC(ON1C(C)(C)CCCC1(C)C)c1ccc(NC(=O)[C@@H](Cc2ccccc2)NC(=O)[C@H](NC(=O)[C@@H](Cc2ccccc2)NC(=O)OC(C)(C)C)C(C)C)cc1 (some centres unmarked) [A3D]	> 50 µM
CC(ON(C(C)(C)C)C(C)(C)C)c1ccc(NC(=O)[C@@H](Cc2ccccc2)NC(=O)[C@H](NC(=O)[C@@H](Cc2ccccc2)NC(=O)OC(C)(C)C)C(C)C)cc1 (some centres unmarked) [A8D]	> 50 µM
CC(ON1C(C)(C)CCCC1(C)C)c1ccc(NC(=O)[C@@H](Cc2ccccc2)NC(=O)[C@H](NC(=O)[C@H](N)Cc2ccccc2)C(C)C)cc1 (some centres unmarked) [A4D]	2.2 to 2.6 µM
CC(C)[C@@H](NC(=O)[C@H](N)Cc1ccccc1)C(=O)N[C@H](Cc1ccccc1)C(=O)O [P11D] (H-[dF]-[dV]-[dF]-OH; N-terminus and C-terminus assumed)	> 50 µM
CC(ON(C(C)(C)C)C(C)(C)C)c1ccc(NC(=O)[C@@H](Cc2ccccc2)NC(=O)[C@@H](NC(=O)[C@H](Cc2ccccc2)NC(=O)OC(C)(C)C)C(C)C)cc1 (stereo partly drawn) [A8DL]	> 50 µM
CC(C)[C@@H](NC(=O)[C@H](N)Cc1ccccc1)C(=O)N[C@H](Cc1ccccc1)C(=O)OCc1ccccc1 [P8D] (H-[dF]-[dV]-[dF]-OBn)	> 50 µM
CC(ON(C(C)(C)C)C(C)(C)C)c1ccc(NC(=O)[C@@H](Cc2ccccc2)NC(=O)[C@H](NC(=O)[C@H](N)Cc2ccccc2)C(C)C)cc1 (some centres unmarked) [AW230]	9 µM
CC(C)[C@@H](NC(=O)[C@@H](Cc1ccccc1)NC(=O)OC(C)(C)C)C(=O)N[C@H](Cc1ccccc1)C(=O)O [P7D] (Boc-[dF]-[dV]-[dF]-OH)	> 50 µM
CC(C)[C@H](NC(=O)[C@H](Cc1ccccc1)NC(=O)OC(C)(C)C)C(=O)N[C@@H](Cc1ccccc1)C(=O)OCc1ccccc1 [P6L] (Boc-Phe-Val-Phe-OBn)	> 50 µM
CC(C)[C@H](NC(=O)[C@H](Cc1ccccc1)NC(=O)CCC(=O)OCc1ccccc1)C(=O)N[C@@H](Cc1ccccc1)C(=O)OCc1ccccc1 [P9L, N-(Bn)succinyl-L-Phe-L-Val-L-Phe–OBn]	> 50 µM
